# binding signal per record follows
- target-or-test-system: dAsCas12a S542R (Acidaminococcus sp., UniProt U2UMQ6 1-1307, S542R;D908A;E993A;D1235A)
- procedure-details: Spec-seq (native PAGE EMSA with sequencing of bound and unbound); 25 mM Tris-HCl pH 7.4, 150 mM KCl, 5 mM MgCl2, 10% glycerol, 1 mM DTT, 40 ng/uL salmon sperm DNA; 400 nM Cas12a, 480 nM crRNA, 50 nM library, 37 C 1 h; native PAGE at room temperature; high values mean tight binding;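 note: relative affinity from the bound to unbound sequence frequency ratio in Spec-seq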
- experimental-context: protein: recombinant
The answer is to be given in lnKA; state only the numeric part.

CTAT (dsDNA) DNA 1: GCTATCTAGTGCTCAGTACGCACTGCTATAGGAAACTTCTGGCAGGACCAGGTCATGAGATCGGAAGAGCACACGTCTGAACTCCAGTCA DNA 2: TGACTGGAGTTCAGACGTGTGCTCTTCCGATCTCATGACCTGGTCCTGCCAGAAGTTTCCTATAGCAGTGCGTACTGAGCACTAGATAGC RNA: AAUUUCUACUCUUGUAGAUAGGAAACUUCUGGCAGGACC    -8.52
GAAC (dsDNA) DNA 1: GCTATCTAGTGCTCAGTACGCACTGGAACAGGAAACTTCTGGCAGGACCAGGTCATGAGATCGGAAGAGCACACGTCTGAACTCCAGTCA DNA 2: TGACTGGAGTTCAGACGTGTGCTCTTCCGATCTCATGACCTGGTCCTGCCAGAAGTTTCCTGTTCCAGTGCGTACTGAGCACTAGATAGC RNA: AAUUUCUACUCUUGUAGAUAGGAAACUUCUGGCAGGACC    -8.59

The record that follows has no binding signal shown yet.
binding signal for AAGG (dsDNA) DNA 1: GCTATCTAGTGCTCAGTACGCACTGAAGGAGGAAACTTCTGGCAGGACCAGGTCATGAGATCGGAAGAGCACACGTCTGAACTCCAGTCA DNA 2: TGACTGGAGTTCAGACGTGTGCTCTTCCGATCTCATGACCTGGTCCTGCCAGAAGTTTCCTCCTTCAGTGCGTACTGAGCACTAGATAGC RNA: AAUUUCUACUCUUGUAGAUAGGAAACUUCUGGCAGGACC ? -8.67
